# ASSAYED SYSTEM: Beta-1 adrenergic receptor (Homo sapiens, UniProt P08588)
# Sequence (P08588 whole entry): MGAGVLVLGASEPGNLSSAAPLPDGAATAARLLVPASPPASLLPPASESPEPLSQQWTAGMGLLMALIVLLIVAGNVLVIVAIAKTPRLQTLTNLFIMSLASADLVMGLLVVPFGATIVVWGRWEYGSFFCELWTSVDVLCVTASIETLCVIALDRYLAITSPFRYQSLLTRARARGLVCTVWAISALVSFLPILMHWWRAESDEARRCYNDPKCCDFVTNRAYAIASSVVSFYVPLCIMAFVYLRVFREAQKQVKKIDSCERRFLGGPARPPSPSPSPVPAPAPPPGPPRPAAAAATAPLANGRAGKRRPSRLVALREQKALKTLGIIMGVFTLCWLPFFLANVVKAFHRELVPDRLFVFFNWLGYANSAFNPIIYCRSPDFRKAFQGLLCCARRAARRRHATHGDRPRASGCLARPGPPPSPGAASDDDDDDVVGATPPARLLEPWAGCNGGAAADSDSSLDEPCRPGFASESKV
# MEASUREMENT NOTES: DRUGMATRIX: Adrenergic beta1 radioligand binding (ligand: [125I] Cyanopindolol)
# Assay type: cell membranes, CHO-K1, Membrane
# TEST CONTEXT: cho-k1; Not Active = under 50% inhibition at 10 µM

MOLECULE	ASSAYED SYSTEM	IC50
CCN[C@@H]1C[C@H](N)[C@@H](O[C@H]2OC(CN)=CC[C@H]2N)[C@H](O)[C@H]1O[C@H]1OC[C@](C)(O)[C@H](NC)[C@H]1O [NETILMICIN]	Beta-1 adrenergic receptor (Homo sapiens, UniProt P08588)	Not Active
C[C@H]1O[C@@H](O[C@H]2[C@@H](O)C[C@H](O[C@H]3[C@@H](O)C[C@H](O[C@H]4CC[C@@]5(C)[C@H](CC[C@@H]6[C@@H]5CC[C@]5(C)[C@@H](C7=CC(=O)OC7)CC[C@]65O)C4)O[C@@H]3C)O[C@@H]2C)C[C@H](O)[C@@H]1O [DIGITOXIN]	Beta-1 adrenergic receptor (Homo sapiens, UniProt P08588)	Not Active

* * *

# ASSAYED SYSTEM: Substance-K receptor (Homo sapiens, UniProt P21452); also: in other assays of this panel Not Active means under 50% inhibition at 10 µM
# Sequence (P21452 whole entry): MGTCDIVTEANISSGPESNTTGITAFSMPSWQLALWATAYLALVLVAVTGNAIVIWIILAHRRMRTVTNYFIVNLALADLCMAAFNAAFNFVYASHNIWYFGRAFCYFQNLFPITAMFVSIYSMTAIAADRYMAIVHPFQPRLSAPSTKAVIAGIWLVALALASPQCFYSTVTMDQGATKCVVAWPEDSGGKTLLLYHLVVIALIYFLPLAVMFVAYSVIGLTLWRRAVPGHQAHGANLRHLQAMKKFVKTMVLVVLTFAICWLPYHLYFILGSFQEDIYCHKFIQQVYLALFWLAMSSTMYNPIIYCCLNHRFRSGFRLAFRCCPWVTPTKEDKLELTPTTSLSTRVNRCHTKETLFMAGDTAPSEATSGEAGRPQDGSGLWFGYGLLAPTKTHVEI
# Assay type: cell membranes, CHO, Membrane
# TEST CONTEXT: read-out: Ki
pKi: −log10 of the molar value.
Binary classification by pKi, with 6 as an inclusive lower bound for label 1; all other cases are label 0.

Q: Does pKi meet or surpass 6 for "CCC1=C[C@@H]2CN(C1)Cc1c([nH]c3ccccc13)[C@@](C(=O)OC)(c1cc3c(cc1OC)N(C)[C@H]1[C@@](O)(C(=O)OC)[C@H](OC(C)=O)[C@]4(CC)C=CCN5CC[C@]31[C@@H]54)C2" ?
Result: label 1

Q: Please indicate if the recorded pKi for CC(=O)N1CCN(c2ccc(OCC3COC(Cn4ccnc4)(c4ccc(Cl)cc4Cl)O3)cc2)CC1 (stereo unspecified) meets or exceeds 6.
Result: label 0

Q: Assess whether reported pKi for "CC/C(=C(/CC)c1ccc(O)cc1)c1ccc(O)cc1" sits at 6 or higher.
Result: label 0

Q: Hi team, for "CN(C)c1ccc(C(=C2C=CC(=[N+](C)C)C=C2)c2ccc(N(C)C)cc2)cc1.[Cl-]" , is the recorded pKi at or above 6?
Result: label 1

* * *

# ASSAYED SYSTEM: Caspase-1 (Homo sapiens, UniProt P29466);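 also: Caspase-1 enzyme inhibition assay with a peptide substrate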; also: in other assays of this panel Not Active means under 50% inhibition at 10 µM
# Sequence (P29466 whole entry): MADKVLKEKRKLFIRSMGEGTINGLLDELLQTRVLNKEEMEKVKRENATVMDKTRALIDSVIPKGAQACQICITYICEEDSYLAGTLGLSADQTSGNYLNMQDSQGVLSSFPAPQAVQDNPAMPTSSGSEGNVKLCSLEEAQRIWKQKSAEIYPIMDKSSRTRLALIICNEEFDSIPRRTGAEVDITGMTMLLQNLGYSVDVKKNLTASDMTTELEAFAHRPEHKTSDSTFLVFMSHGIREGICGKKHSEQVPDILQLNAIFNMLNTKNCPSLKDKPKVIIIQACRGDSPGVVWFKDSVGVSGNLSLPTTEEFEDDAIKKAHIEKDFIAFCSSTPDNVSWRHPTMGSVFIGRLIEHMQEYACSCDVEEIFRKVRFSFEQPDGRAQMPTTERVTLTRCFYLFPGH
# Set-up: species or system Escherichia coli
MEASURE: IC50

COMPOUND	MEASURED RESULT
CC(C)(C(=O)c1cccnc1)c1cccnc1 [METYRAPONE]	Not Active
N[C@H](CSC(=S)NCc1ccccc1)C(=O)O	Not Active
CCC1=C[C@@H]2CN(C1)Cc1c([nH]c3ccccc13)[C@@](C(=O)OC)(c1cc3c(cc1OC)N(C)[C@H]1[C@@](O)(C(=O)OC)[C@H](OC(C)=O)[C@]4(CC)C=CCN5CC[C@]31[C@@H]54)C2 [VINORELBINE]	Not Active
CC(=O)Nc1cccc(O)c1 [METACETAMOL]	Not Active
COc1ccccc1C(=O)N1CCC(Cc2ccccc2)CC1	Not Active

Shifting focus to the compound that follows.
Q: Missing value: IC50, Caspase-1 (Homo sapiens, UniProt P29466), entry Oc1ccc(OCc2ccccc2)cc1 [MONOBENZONE] . Fill in?
Result: Not Active
